System: RBL-2H3
assay method text: Cytotoxicity against rat RBL2H3 cells at 5 and 20 uM after 24 hrs by MTS assay
Type: cell-based
measurement context: rbl-2h3, 24 h
reported metric: Activity

C[C@@H]1CC[C@]2(C(=O)O[C@@H]3O[C@H](CO)[C@@H](O)[C@H](O)[C@H]3O)CC[C@]3(C)C(=CC[C@@H]4[C@@]5(C)C[C@@H](O)[C@@H](O)C(C)(C)[C@@H]5CC[C@]43C)[C@@H]2[C@]1(C)O :: Non-Toxic
C[C@@H]1CC[C@]2(C(=O)O)CC[C@]3(C)C(=CC[C@@H]4[C@@]5(C)CC[C@H](O[C@@H]6OC[C@H](O)[C@H](O)[C@H]6O)C(C)(C)[C@@H]5CC[C@]43C)[C@@H]2[C@]1(C)O :: Non-Toxic
CC(CCCC(C)(C)O)CCO[C@@H]1O[C@H](CO[C@@H]2O[C@@H](CO)[C@H](O)[C@H]2O)[C@@H](O)[C@H](O)[C@H]1O (stereo partly drawn) :: Non-Toxic
